Parameter pIC50: see the listing below.
target: human NaV subtype, like NaV 1.7 (Homo sapiens, UniProt Q15858); experiment: E-VIPR optical membrane potential assay with electrical stimulation; details: active against one or more sodium channels; Table 3 does not name the assay or NaV subtype; read-out: Binned Activity Data (IC50)
Sequence (Q15858 whole entry): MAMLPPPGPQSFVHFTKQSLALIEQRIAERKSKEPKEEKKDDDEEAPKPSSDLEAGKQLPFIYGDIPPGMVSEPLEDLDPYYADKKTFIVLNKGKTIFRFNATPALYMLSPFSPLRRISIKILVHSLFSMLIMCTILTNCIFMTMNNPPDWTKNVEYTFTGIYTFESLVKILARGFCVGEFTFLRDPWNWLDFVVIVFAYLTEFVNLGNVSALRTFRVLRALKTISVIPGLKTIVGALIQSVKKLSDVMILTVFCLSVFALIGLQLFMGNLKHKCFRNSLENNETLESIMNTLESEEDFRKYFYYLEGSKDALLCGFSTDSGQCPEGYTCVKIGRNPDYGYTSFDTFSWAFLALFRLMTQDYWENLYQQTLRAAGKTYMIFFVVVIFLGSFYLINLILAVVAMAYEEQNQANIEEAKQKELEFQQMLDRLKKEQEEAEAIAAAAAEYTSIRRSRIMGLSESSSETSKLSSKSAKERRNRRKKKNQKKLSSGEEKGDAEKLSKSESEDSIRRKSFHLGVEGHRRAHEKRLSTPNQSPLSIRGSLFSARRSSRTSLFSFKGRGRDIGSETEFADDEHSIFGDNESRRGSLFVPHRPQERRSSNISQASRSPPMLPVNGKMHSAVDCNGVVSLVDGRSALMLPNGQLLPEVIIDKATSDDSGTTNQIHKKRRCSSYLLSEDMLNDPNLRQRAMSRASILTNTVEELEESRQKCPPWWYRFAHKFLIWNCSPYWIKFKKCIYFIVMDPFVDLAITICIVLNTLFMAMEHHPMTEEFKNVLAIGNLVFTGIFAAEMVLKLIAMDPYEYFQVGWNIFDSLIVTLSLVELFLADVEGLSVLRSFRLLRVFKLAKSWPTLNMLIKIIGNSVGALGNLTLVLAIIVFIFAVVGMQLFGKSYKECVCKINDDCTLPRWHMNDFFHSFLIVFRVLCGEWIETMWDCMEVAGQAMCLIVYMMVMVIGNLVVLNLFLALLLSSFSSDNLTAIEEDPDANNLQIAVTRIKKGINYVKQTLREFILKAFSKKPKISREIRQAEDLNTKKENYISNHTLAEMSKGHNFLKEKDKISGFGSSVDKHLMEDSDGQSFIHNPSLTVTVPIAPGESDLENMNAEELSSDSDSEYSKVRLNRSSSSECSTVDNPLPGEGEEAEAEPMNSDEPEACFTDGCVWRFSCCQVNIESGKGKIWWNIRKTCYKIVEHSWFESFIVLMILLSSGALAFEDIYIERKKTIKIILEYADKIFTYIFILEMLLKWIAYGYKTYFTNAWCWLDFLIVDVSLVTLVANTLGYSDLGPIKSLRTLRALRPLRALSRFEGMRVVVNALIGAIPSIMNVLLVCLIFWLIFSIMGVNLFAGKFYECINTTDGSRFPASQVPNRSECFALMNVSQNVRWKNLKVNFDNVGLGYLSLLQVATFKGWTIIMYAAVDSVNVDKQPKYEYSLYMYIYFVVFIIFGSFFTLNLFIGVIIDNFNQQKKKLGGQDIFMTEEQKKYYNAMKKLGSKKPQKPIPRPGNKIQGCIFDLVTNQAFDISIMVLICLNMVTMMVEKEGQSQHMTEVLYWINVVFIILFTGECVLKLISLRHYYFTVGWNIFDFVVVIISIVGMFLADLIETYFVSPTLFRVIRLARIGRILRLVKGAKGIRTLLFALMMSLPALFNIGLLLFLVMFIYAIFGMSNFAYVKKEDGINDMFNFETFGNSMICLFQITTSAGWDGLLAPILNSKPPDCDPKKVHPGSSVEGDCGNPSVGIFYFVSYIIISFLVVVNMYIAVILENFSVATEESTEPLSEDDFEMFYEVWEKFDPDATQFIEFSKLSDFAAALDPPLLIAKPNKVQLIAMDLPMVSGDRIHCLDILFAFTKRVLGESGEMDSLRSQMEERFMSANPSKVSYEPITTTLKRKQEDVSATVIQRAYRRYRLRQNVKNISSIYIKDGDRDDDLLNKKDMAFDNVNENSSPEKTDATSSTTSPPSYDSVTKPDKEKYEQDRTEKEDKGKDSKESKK
pIC50: −log10 of the molar value.

>>> print(df.to_string())
                                   molecule                               test_target  reported_result
0  COc1ccc(C(=O)N2CCC3(CC2)NC(C)(C)Cn2c(C(C)=O)ccc23)cc1C  human NaV subtype, like NaV 1.7 (Homo sapiens, UniProt Q15858)           < 5.30
1  COc1ccc(C(=O)N2CCC3(CC2)c2ccc(C(=O)C(F)(F)F)n2C[C@H](C)N3C)nc1C  human NaV subtype, like NaV 1.7 (Homo sapiens, UniProt Q15858)           ≥ 5.70
2  CN1CCn2c(Cl)ccc2C12CCN(C(=O)c1ccc(C3CC3)cc1)CC2  human NaV subtype, like NaV 1.7 (Homo sapiens, UniProt Q15858)           < 5.30
3  CCOc1ccc(C(=O)N2CCC3(CC2)c2ccc(C(C)=O)n2CCN3C)cc1OCC  human NaV subtype, like NaV 1.7 (Homo sapiens, UniProt Q15858)           < 5.30
4  CC(C)CCOc1ccc(C(=O)N2CCC3(CC2)c2ccc(C(=O)C(F)(F)F)n2CCN3C)cc1  human NaV subtype, like NaV 1.7 (Homo sapiens, UniProt Q15858)           ≥ 5.70

Given the molecule Cc1cc(C(=O)N2CCC3(CC2)c2ccc(C(=O)C(F)(F)F)n2CCN3C)ccc1OCC(C)(C)O , what is its reported pIC50?
≥ 5.70

And CC(=O)c1ccc2n1CCN(C)C21CCN(C(=O)c2ccc(OCCC(C)C)cc2)CC1 ?
≥ 5.70

And Cc1cc(C(=O)N2CCC3(CC2)c2ccc(C(=O)C(F)(F)F)n2C(C)CN3C)ccc1C(C)(C)O (stereo not shown) ?
≥ 5.70

And CN1CCn2c(C(=O)C(F)(F)F)ccc2C12CCN(C(=O)c1ccc(S(=O)(=O)C(C)(C)C)cc1)CC2 ?
< 5.30

And Cc1cc(C(=O)N2CCC3(CC2)NC(C)(C)Cn2cc(F)c(F)c23)ccc1OC(C)C ?
< 5.30

----------
Parameter pIC50: see the listing below.
Target: human NaV subtype, like NaV 1.7 (Homo sapiens)
Assay: E-VIPR optical membrane potential assay with electrical stimulation
Conditions: active against one or more sodium channels; Table 3 does not name the assay or NaV subtype; read-out: Binned Activity Data (IC50)
Description: Assays for Detecting and Measuring NaV Inhibition Properties of Compound E-VIPR Optical Membrane Potential Assay Method with Electrical Stimulation Sodium channels are voltage-dependent proteins that can be activated by inducing membrane voltage changes by applying electric fields. The electrical stimulation instrument and methods of use are described in Ion Channel Assay Methods PCT/US01/21652, herein incorporated by reference and are referred to as E-VIPR. […] 7) Read Plate on E-VIPR. […]
pIC50: −log10 of the molar value.

Past entries and their recorded results:
>>> print(df.to_string())
                                 mol_smiles  measured_endpoint  reported_result
0  COc1ccc(C(=O)N2CCC3(CC2)NC(C)(C)Cn2c(C(=O)C(F)(F)F)ccc23)c(C)c1              pIC50           ≥ 5.70
1  COc1cc(C(=O)N2CCC3(CC2)c2ccc(C(=O)C(C)C)n2CCN3C)ccc1OC(C)C              pIC50           ≥ 5.70
2  CN1CCn2c(C(=O)C(F)(F)F)ccc2C12CCN(C(=O)c1ccc(OS(=O)(=O)C(F)(F)F)cc1)CC2              pIC50           ≥ 5.70
3  CC(C)Oc1ccc(C(=O)N2CCC3(CC2)N[C@H](C)Cn2c(C(F)(F)F)ccc23)cc1F              pIC50           ≥ 5.70
4  COc1cc(C(=O)N2CCC3(CC2)c2ccc(Cl)n2CCN3C)ccc1OCC(C)C              pIC50           ≥ 5.70

Given the molecule O=C(c1ccnc2ccccc12)N1CCC2(CC1)NCCn1c(C(F)(F)F)ccc12 , what is its reported pIC50?
< 5.30

And CC(=O)c1ccc2n1CCN(C)C21CCN(C(=O)c2ccc(OC(C)C)c(F)c2)CC1 ?
< 5.30

And CC(C)Oc1ccc(C(=O)N2CCC3(CC2)c2c(F)cc(C(F)(F)F)n2CCN3C)cc1 ?
≥ 5.70
